This listing pairs molecules with measured solubility.
assayName: solubility in physiological saline
Format: physicochemical
conditionSummary: physiological saline
Use µg/mL as the unit, but write only the number.

INSERT INTO results (smilesrepr, valuekind, resultunit, resultnumber) VALUES
  ('CC(=O)O[C@@]12CO[C@@H]1C[C@H](O)[C@@]1(C)C(=O)[C@H](O)C3=C(C)[C@@H](OC(=O)[C@H](OC(=O)COC(=O)CNC(=O)CN)[C@@H](NC(=O)OC(C)(C)C)c4ccccc4)C[C@@](O)([C@@H](OC(=O)c4ccccc4)[C@H]21)C3(C)C', 'solubility', 'µg/mL', 10000);

Next molecule, solubility to be filled in.
Input line: Bench note: what solubility did CCOC(=O)[C@@H](N)CC(=O)OCC(=O)O[C@@H](C(=O)O[C@H]1C[C@@]2(O)[C@@H](OC(=O)c3ccccc3)[C@@H]3[C@]4(OC(C)=O)CO[C@@H]4C[C@H](O)[C@@]3(C)C(=O)[C@H](OC(C)=O)C(=C1C)C2(C)C)[C@@H](NC(=O)c1ccccc1)c1ccccc1 show?
Output line: 300
